B1: library; a variant is named by its letters at N, in order (parent)
chain: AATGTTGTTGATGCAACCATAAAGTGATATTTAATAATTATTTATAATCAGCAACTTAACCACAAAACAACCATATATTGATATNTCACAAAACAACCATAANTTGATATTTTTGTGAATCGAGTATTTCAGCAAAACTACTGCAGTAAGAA

# Variants of: B1
# run_description: relative integration efficiency (T-RL orientation) vs wild-type transposon end (log2 (normalized fold change)); transposon end mutated: left end; higher = more efficient transposition
# reported_conditions: with VchCAST RNA-guided transposition machinery (E. coli BL21(DE3) host, lacZ target)
Here the recorded relative integration efficiency (log2) is given for each entry.

Solved cases (4 shown):
INSERT INTO measurements (sequence_change, measurement_name, result) VALUES
  ('CG T76A A77T', 'relative integration efficiency (log2)', 0.117),
  ('TA A23G G24T A33T A70C T76A T84A C87A T104A T110A T113A', 'relative integration efficiency (log2)', -0.0493),
  ('CG T110C', 'relative integration efficiency (log2)', -0.405),
  ('CG C87G', 'relative integration efficiency (log2)', -0.138);

Look up relative integration efficiency (log2) for this variant: CG C49A
0.178

Look up relative integration efficiency (log2) for this variant: TA A16C G24T T30A T76A T78G C87A A96C T110A T113A
0.17

Look up relative integration efficiency (log2) for this variant: CG C14G C68G C94G
-2.49

Look up relative integration efficiency (log2) for this variant: CG G24C T78A T104A
-0.396
